pIC50 values for the compounds below.
- tested system: human Werner helicase (WRN, Uniprot Q14191, amino acids 517-1235 with L1074F point mutation; WRN-BV08) (Homo sapiens, UniProt Q14191, L1074F)
- Construct: Uniprot Q14191, amino acids 517-1235 with L1074F point mutation; 8xHis (C, cleaved yes); TEV cleavage site (ENLYFQG) (C, cleaved yes)
- Sequence (Q14191 with tags, fused parts or gaps L1074F): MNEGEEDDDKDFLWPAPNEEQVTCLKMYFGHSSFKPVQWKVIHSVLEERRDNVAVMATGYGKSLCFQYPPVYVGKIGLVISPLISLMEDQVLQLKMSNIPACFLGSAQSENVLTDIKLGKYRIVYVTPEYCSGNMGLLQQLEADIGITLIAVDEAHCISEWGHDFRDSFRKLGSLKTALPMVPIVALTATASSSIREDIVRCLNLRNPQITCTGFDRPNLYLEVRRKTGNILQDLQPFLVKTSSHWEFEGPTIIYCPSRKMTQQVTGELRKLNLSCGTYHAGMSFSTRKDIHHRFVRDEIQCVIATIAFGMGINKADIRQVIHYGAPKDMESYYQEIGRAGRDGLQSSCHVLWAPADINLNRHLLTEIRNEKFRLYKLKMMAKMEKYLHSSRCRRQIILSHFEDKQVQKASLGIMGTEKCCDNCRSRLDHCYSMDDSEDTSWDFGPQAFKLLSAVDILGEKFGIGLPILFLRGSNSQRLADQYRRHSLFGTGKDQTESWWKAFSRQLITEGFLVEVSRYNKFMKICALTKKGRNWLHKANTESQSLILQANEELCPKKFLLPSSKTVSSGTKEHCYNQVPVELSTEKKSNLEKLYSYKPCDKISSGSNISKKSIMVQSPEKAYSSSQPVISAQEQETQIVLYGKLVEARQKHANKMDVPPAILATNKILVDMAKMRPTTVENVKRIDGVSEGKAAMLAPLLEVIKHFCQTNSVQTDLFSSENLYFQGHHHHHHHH
- test: WRN (BV08) ADP-Glo assay
- experimental parameters: WRN-BV08 (aa 517-1235, L1074F); read-out: ADP-Glo_hWRN_IC50
pIC50: −log10 of the molar value.

{"compound": "CCc1c(N2CCN(C(=O)c3ncnc(C)c3O)CC2)c(=O)n2nc(-c3ccnc(OC)c3)nc2n1CC(=O)NC12CC(C(F)(F)F)(C1)C2 [I-4]", "pIC50": "7.30 to 8.30"}
{"compound": "CCc1c(N2CCN(C(=O)c3ncnc(C)c3O)CC2)c(=O)c2nc3cc(C)sc3nc2n1CC(=O)NC12CC(C(F)(F)F)(C1)C2 [I-3]", "pIC50": "7.30 to 8.30"}
{"compound": "CCc1c(N2CCN(C(=O)c3ncnc(C)c3O)[C@H]3CC[C@@H]32)c(=O)c2nn(-c3ccc(OC)cc3)nc2n1CC(=O)NC12CC(C(C)C)(C1)C2 [I-145]", "pIC50": "≥ 8.30"}
{"compound": "CCc1c(N2CCN(C(=O)c3ncnc(C)c3O)CC2)c(=O)c2nn(C3=CCOCC3)nc2n1CC(=O)NC12CC(C(C)C)(C1)C2 [I-59]", "pIC50": "7.30 to 8.30"}
{"compound": "CCc1c(N2CCN(C(=O)c3ncnc(C)c3O)[C@H]3CC[C@@H]32)c(=O)c2nc(N(C)C)cnc2n1CC(=O)NC12CC(OC(F)(F)F)(C1)C2 [I-237]", "pIC50": "7.30 to 8.30"}
{"compound": "CCc1c(N2CCN(C(=O)c3c(O)ccc4ncoc34)CC2)c(=O)n2nc(-c3ccnc(OC)c3)nc2n1CC(=O)NC12CC(C3CC3)(C1)C2 [I-36]", "pIC50": "≥ 8.30"}

---

- tested system: human Werner helicase (WRN, Uniprot Q14191, amino acids 517-1235 with L1074F point mutation; WRN-BV08) (Homo sapiens, UniProt Q14191, L1074F)
- Construct: Uniprot Q14191, amino acids 517-1235 with L1074F point mutation; 8xHis (C, cleaved yes); TEV cleavage site (ENLYFQG) (C, cleaved yes)
- test: WRN (BV08) ADP-Glo assay
- experimental parameters: WRN-BV08 (aa 517-1235, L1074F); read-out: ADP-Glo_hWRN_IC50
- From the text: Example 2: WRN (BV08) ADP-Glo Assay Protocol Bovine skin gelatin (BSG), dimethyl sulfoxide (DMSO), Pluronic F-127 and tris(2-carboxyethyl)phosphine hydrochloride solution (TCEP) were purchased from Sigma-Aldrich (St. Louis, MO) at the highest level of purity possible. […] The reaction was stopped by the addition of the ADP-Glo Kit components (Promega; Madison, WI) as directed and the relative luminescence units (RLU) were read on an Envision 2104 (Perkin Elmer; Waltham, MA). […]
outcome measure: IC50

{"compound": "CCc1c(N2CCN(C(=O)c3ncnc(C)c3O)[C@H]3CCC[C@@H]32)c(=O)c2nn(C3=CCOCC3)nc2n1CC(=O)NC12CC(C3CC3)(C1)C2", "experimental value": "0.005 to 0.05 µM"}
{"compound": "CCc1c(N2CCN(C(=O)c3c(O)ccc4ncoc34)CC2)c(=O)n2nc(N(C)C)nc2n1CC(=O)NC12CC(C3CCC3)(C1)C2", "experimental value": "0.005 to 0.05 µM"}
{"compound": "CCc1c(N2CCN(C(=O)c3ncnc(C)c3O)[C@H]3CC[C@@H]32)c(=O)c2nn(C3=CCN(CC(F)F)CC3)nc2n1CC(=O)NC12CC(C3CC3)(C1)C2", "experimental value": "0.005 to 0.05 µM"}
{"compound": "CCc1c(N2CCN(C(=O)c3ncnc(C)c3O)[C@H]3CC[C@@H]32)c(=O)n2nc(C3=CCOCC3)nc2n1CC(=O)NC12CC(C(C)C)(C1)C2", "experimental value": "0.005 to 0.05 µM"}
{"compound": "CCc1c(C2=CCN(C(=O)c3ncnc(C)c3O)CC2C)c(=O)c2nn(-c3ccnc(OC)c3)nc2n1CC(=O)NC12CC(C(C)C)(C1)C2 (single isomer, unassigned) [I-98]", "experimental value": "0.005 to 0.05 µM"}
{"compound": "CCc1c(N2CCN(C(=O)c3c(O)ccc4ncoc34)CC2)c(=O)n2nc(-c3ccnc(OC)c3)nc2n1CC(=O)NC12COC(C(F)(F)F)(C1)C2", "experimental value": "0.005 to 0.05 µM"}

---

IC50 values for the compounds below.
- tested system: human Werner helicase (WRN, Uniprot Q14191, amino acids 517-1235 with L1074F point mutation; WRN-BV08) (Homo sapiens, UniProt Q14191, L1074F)
- Construct: Uniprot Q14191, amino acids 517-1235 with L1074F point mutation; 8xHis (C, cleaved yes); TEV cleavage site (ENLYFQG) (C, cleaved yes); made in house; host or cells: Sf9 insect cells (baculovirus, pFastBac)
- test: WRN (BV08) ADP-Glo assay
- Format: biochemical
- experimental parameters: WRN-BV08 (aa 517-1235, L1074F); read-out: ADP-Glo_hWRN_IC50

{"compound": "CCc1c(N2CCN(C(=O)c3ncnc(C)c3O)CC2)c(=O)n2nc(C3=CCOCC3)nc2n1CC(=O)NC12COC(C(F)(F)F)(C1)C2", "IC50": "100 to 500 nM"}
{"compound": "CCc1c(N2CCN(C(=O)c3ncc4c(c3O)CCO4)CC2)c(=O)n2nc(C3=CCOCC3)nc2n1CC(=O)NC12CC(C)(C1)C2", "IC50": "50 to 100 nM"}
{"compound": "CCc1c(N2CCN(C(=O)c3cccc4ncoc34)CC2)c(=O)n2nc(-c3ccnc(OC)c3)nc2n1CC(=O)NC12CC(C(F)(F)F)(C1)C2", "IC50": "5 to 50 nM"}
{"compound": "CCc1c(N2CCN(C(=O)c3ncnc(C)c3O)CC2)c(=O)c2nc(-c3ccnc(OC)c3)oc2n1CC(=O)NC12CC(C(F)(F)F)(C1)C2", "IC50": "5 to 50 nM"}
{"compound": "CCc1c(N2CCN(C(=O)CC3CCCC(=O)N3)[C@H]3CC[C@@H]32)c(=O)c2nn(C3=CCOCC3)nc2n1CC(=O)NC12CC(C(C)C)(C1)C2 (stereo partly drawn)", "IC50": "5 to 50 nM"}
{"compound": "CCc1c(N2CCN(C(=O)c3c(OC)ncc(F)c3O)[C@H]3CC[C@@H]32)c(=O)c2nn(-c3ccnc(OC)c3)nc2n1CC(=O)NC12CC(C(C)C)(C1)C2", "IC50": "≤ 5 nM"}
{"compound": "CCc1c(N2CCN(C(=O)c3c(O)ccc4ncoc34)CC2)c(=O)n2nc(-c3ccnc(OC)c3)nc2n1CC(=O)NC12CC(C(F)(F)F)(C1)C2", "IC50": "5 to 50 nM"}
{"compound": "CCc1c(N2CCN(C(=O)c3ncnc(C)c3O)CC2)c(=O)n2nc(-c3ccncc3)nc2n1CC(=O)NC12CC(C3CCC3)(C1)C2", "IC50": "5 to 50 nM"}
{"compound": "CCc1c(N2CCN(C(=O)c3ncnc(C)c3O)C(C)(C)C2)c(=O)c2nn(-c3ccnc(OC)c3)nc2n1CC(=O)NC12CC(C3CC3)(C1)C2", "IC50": "5 to 50 nM"}
{"compound": "CCc1c(N2CCN(C(=O)c3ncc4c(c3O)CCO4)CC2)c(=O)n2nc(C3=CCOCC3)nc2n1CC(=O)NC12CC(CC)(C1)C2", "IC50": "5 to 50 nM"}
{"compound": "CCc1c(N2CCN(C(=O)c3c(OC)ncc(C)c3O)[C@H]3CC[C@@H]32)c(=O)c2nc(N(C)C)cnc2n1CC(=O)NC12CC(C3CC3)(C1)C2", "IC50": "5 to 50 nM"}
{"compound": "CCc1c(N2CCN(C(=O)c3ncnc(C)c3O)[C@H]3CC[C@@H]32)c(=O)c2cn(-c3ccnc(OC)c3)nc2n1CC(=O)NC12CC(C3CC3)(C1)C2", "IC50": "5 to 50 nM"}

---

- tested system: human Werner helicase (WRN, Uniprot Q14191, amino acids 517-1235 with L1074F point mutation; WRN-BV08) (Homo sapiens, UniProt Q14191, L1074F)
- Construct: Uniprot Q14191, amino acids 517-1235 with L1074F point mutation; 8xHis (C, cleaved yes); TEV cleavage site (ENLYFQG) (C, cleaved yes)
- test: WRN (BV08) ADP-Glo assay
- experimental parameters: WRN-BV08 (aa 517-1235, L1074F); read-out: ADP-Glo_hWRN_IC50
pIC50: −log10 of the molar value.
outcome measure: pIC50

{"compound structure string": "CCc1c(N2CCN(C(=O)c3ncnc(C)c3O)[C@H]3CC[C@@H]32)c(=O)n2nc(-c3ccnc(OC)c3)nc2n1CC(=O)NC12CC(C(F)(F)F)(C1)C2", "outcome measure": "pIC50", "experimental value": "7.30 to 8.30"}
{"compound structure string": "CCc1c(N2CCN(C(=O)c3c(O)ccc4ncoc34)CC2)c(=O)n2ncnc2n1CC(=O)NC12CC(C3CCC3)(C1)C2", "outcome measure": "pIC50", "experimental value": "6.30 to 7.00"}
{"compound structure string": "CCc1c(N2CCN(C(=O)c3ncnc(C)c3O)CC2)c(=O)c2nc(N(C)C)cnc2n1CC(=O)NC12CC(C(F)(F)F)(C1)C2", "outcome measure": "pIC50", "experimental value": "6.30 to 7.00"}
